Provide the recorded inhibition at 70 µM for the entries that follow.
Biological target: GST-hCAR-LBD (Homo sapiens)
Construct: purchased Life Technologies (Carlsbad, Calif.) or Invitrogen (Carlsbad, Calif.)
Sequence (Q14994 109-352 limits assumed): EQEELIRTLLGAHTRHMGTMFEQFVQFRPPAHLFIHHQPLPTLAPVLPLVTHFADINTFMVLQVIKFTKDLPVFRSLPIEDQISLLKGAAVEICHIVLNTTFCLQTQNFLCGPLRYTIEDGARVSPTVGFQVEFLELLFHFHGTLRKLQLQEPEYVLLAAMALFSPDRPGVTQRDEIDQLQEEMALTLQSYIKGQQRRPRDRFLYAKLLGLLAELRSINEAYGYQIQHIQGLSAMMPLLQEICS
Assay: CoAct binding inverse agonist assay (LanthaScreen TR-FRET, fluorescent PGC-1α coactivator recruitment/repression)
Assay type: biochemical
Conditions: 70 μM compound; 42 μM clotrimazole = 100%, DMSO = 0%; read-out: % Inhibition (70 μM)
Experimental: The effect of putative CAR ligands on the recruitment or repression of PGC-1α binding to hCAR was evaluated by using a LanthaScreen TR-FRET assay according to the manufacturer's instructions. […] The final DMSO concentration was 0.7% in all assay wells. […] The % Inhibition values were then plotted for individual chemicals. […]
Please give a number only; it is taken to be in %.

[in] Provide only the value of recorded inhibition at 70 µM for `CCN(CC)CC(=O)N1c2ccccc2CCc2ccc(NC(=O)NC(C)C)cc21`
[out] 107

[in] Consider the compound `CCNCC(=O)N1c2ccccc2CCc2ccc(NC(=O)OCC)cc21` . State its measured inhibition at 70 µM.
[out] 88.4

[in] Return the recorded inhibition at 70 µM value; entry: `CCOC(=O)Nc1ccc2c(c1)N(C(=O)CN1C(C)(C)CCCC1(C)C)c1ccccc1CC2`
[out] 90.5

[in] Supply inhibition at 70 µM value. Item: `CCOC(=O)Nc1ccc2c(c1)N(C(=O)CCN(CC)CC)c1ccccc1CC2`
[out] 119

[in] Write down inhibition at 70 µM measured for item `CCOC(=O)Nc1ccc2c(c1)N(C(=O)Cn1cccc1)c1ccccc1CC2`
[out] 121

[in] Check the records and state inhibition at 70 µM for `CCOC(=O)Nc1ccc2c(c1)N(C(=O)CN1C(=O)C=CC1=O)c1ccccc1CC2`
[out] 76

[in] Assign inhibition at 70 µM to the following record: `CCOC(=O)Nc1ccc2c(c1)N(C(=O)CN(C(C)C)C(C)C)c1ccccc1CC2`
[out] 110

[in] Give a short answer stating reported inhibition at 70 µM for `CCCC(=O)Nc1ccc2c(c1)N(C(=O)CN(CC)CC)c1ccccc1CC2` .
[out] 106

Sourced from patent US9908890B2
